Biological target: Neu5Ac(a2-6)GlcNAc(b1-4)GlcNAc(b1-4)GlcNAc
Assay: glycan array binding signal (z-score within array); higher = stronger binding
Details: glycan notation: IUPAC condensed, linker removed
The entries come from a sample that favours the strongest signals as a whole.
attribute-measured: glycan array binding signal (z-score)
Hey, just send me the number, nothing else.

**Q:** Would you kindly share the measured glycan array binding signal (z-score) for FimA-N3 (Actinomyces oris) (protein) MHHHHHHSSGVDLGTENLYFQSNAGLQGAQFQLYKAKNAYANTCSNEKEGAPIAINGQTTLTTDAQGAIDIKGLFISDSIDGADRDNQVNAMERCYVLVETKAPAGYVLPAGNGAATPVKVKAGEETTDN ?
**A:** 2.65

**Q:** Would you kindly share the measured glycan array binding signal (z-score) for Epa2 (Candida glabrata) (protein) MGSSHHHHHHSSGLVPRGSHMASSKDPTSFPMGCSPQVLKTQPGLAVKLYSYGHPVPGCAYNTYQYPDFPRSGYKKERKLADITGVNGRIDIDLKPNDPCRVLSGNLPSNYNYQNTLTYTNFTMILYGYFQPKVTGYHTFNLEADDLLFMNLGAGNAFDCCRAESTLDNFGNYQSYSIWGTDKATADLTVFLVSGIYYPIRLFYVNRDNNAVLDFSFSTEFNKEIIHDFTSYFFSASDEEQCPGNI ?
**A:** -0.626

**Q:** Would you kindly share the measured glycan array binding signal (z-score) for SfaEH (Escherichia coli), Q1RDG5 (protein) LLCRNNQTGQVFNSGDTSFRVNVSPVVQYDKSISVLDLSQLVSCQNEDSTGQNYDYLKILKGSGFSPALDTKTYGRLDFTSRPTGYARQLPLQFDLQVTEAFYQYGVWKPFPAKLYLYPAPGVFGKVINNGDLLATLYVNKFSTKGQEAGERNFTWRFYATNDVYIQTGTCRVSSNNVKVDLPSYPGGPVTVPLTVRCDQTQSVSYTLSGPVTGSGNTVFANTAASGSGGVGIQLSDNVGPVPAGQPRSLGQVGSSPVSLGLKASYALTGQASPTPGAVQSVINVTFSYN ?
**A:** 1.19

**Q:** Would you kindly share the measured glycan array binding signal (z-score) for Epa11 (Candida glabrata) (protein) MGSSHHHHHHSSGLVPRGSHMASSNAPNYPVGCSPSVGTQLTPGLSLEVYAYPMDGNNGYCWNATYKDPEFPRSGYLKNKLLGKADGVVGPLNFLAKNKDCSPKVDTLPAGFNFPQPITVTNFTMVLFGYLAPKQSGKYTFKLLADDLLLLNLGATNAFDCCNREATKNNLGEFLAYNLWPNQDKNVTVYLEKGVYYPLRLFFNNRDGGSQLDFSYYFNDSPAPLTDFSGMFFSVPDGAECPARI ?
**A:** -0.053

**Q:** Would you kindly share the measured glycan array binding signal (z-score) for AidA (Burkholderia cenocepacia) (protein) MSRVTDVLVSFDTETILKKYPNPSKNPAAPTLIDWRYVYMVTNQDNVISGQAGGELDLKAQVGDLIRWRETSLSLGFENQVVFYKFIGNVGNDLISTPTPRVAEASIPVPNTSKPEVPTCQKVANYYWSSECLKVGRVTYHFQFQIIDRNCQSQGCFSWDPFISIHN ?
**A:** -0.74

**Q:** Would you kindly share the measured glycan array binding signal (z-score) for CIH1 (Colletotrichum higginsianum) (protein) LPQATPTTPTPTSASAAATISATSSPTCSPGPVIDYTVVSGDTLTIISQRFSSGICNIADASGITNPNFLSLGQVLQVPTYVCTPDNTSCLAKEGSDTCVEGGPATHTIVAGDTFFLVAQSLGLDVNALLAANEGVDPLLLQIGDVINIPVC ?
**A:** -0.004
